Hey, just so you know, these numbers are from patent EP1001930B1.

- Target desc: Recombinant truncated stromelysin (human sequence) (Homo sapiens)
- Sequence (P08254 100-272 limits assumed): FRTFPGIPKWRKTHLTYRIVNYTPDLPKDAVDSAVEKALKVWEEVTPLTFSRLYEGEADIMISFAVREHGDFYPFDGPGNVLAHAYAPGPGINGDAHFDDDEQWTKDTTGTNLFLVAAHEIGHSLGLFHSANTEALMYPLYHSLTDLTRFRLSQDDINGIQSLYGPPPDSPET
- Measurement description: Determination of stromelysin inhibition (cleavage of thiopeptide ester substrate, DTNB colour read at 405 nm)
- Assay conditions: substrate Ac-Pro-Leu-Gly-[2-mercapto-4-methylpentanoyl]-Leu-Gly-OEt; 30 minute assay at ambient temperature; 50 mM MES/NaOH pH 6.5 with 10 mM CaCl2 and 0.2% Pluronic F-68
pIC50: −log10 of the molar value.
Property name: pIC50

INSERT INTO results (compound, property_name, measured_result) VALUES
  ('N#Cc1ccc(-c2ccc(OCC(CSc3ccccc3)N(O)C=O)cc2)cc1 (racemic) [Example 2]', 'pIC50', 7.44),
  ('N#Cc1ccc(-c2ccc(OCCN(O)C=O)cc2)cc1 [Example 15]', 'pIC50', 6.21),
  ('N#Cc1ccc(-c2ccc(OCC(Cc3ccc(F)cc3)N(O)C=O)cc2)cc1 (racemic) [Example 12]', 'pIC50', 6.74),
  ('CCC(C)C(COc1ccc(-c2ccc(C#N)cc2)cc1)N(O)C=O (racemic) [Example 8]', 'pIC50', 6.77),
  ('CCCCC(COc1ccc(-c2ccc(C#N)cc2)cc1)N(O)C=O (racemic) [Example 9]', 'pIC50', 7.00);
